Where do the numbers come from? From patent US20260130395A1.

# ASSAY: Stability of cannabinoid compounds and Vitamin E components in Beverage 1 (AB White) by LCMSMS
# Type: physicochemical
# CONDITION PARAMETERS: AB White stored at 21-25° C.; 18 days
Stability of Plant-Derived Cannabinoid Compounds in AB White, 21-25° C. strictly under 0.9 µg/mL means True; at 0.9 µg/mL or over means False.

Reference set, count: 8
Task: Stability of Plant-Derived Cannabinoid Compounds in AB White, 21-25° C. strictly < 0.9 µg/mL for this compound? `CCCCCc1cc(O)c(C/C=C(\C)CCC=C(C)C)c(O)c1`
Output: False

Task: Strictly below 0.9 µg/mL: is that where Stability of Plant-Derived Cannabinoid Compounds in AB White, 21-25° C. of `C=C(C)[C@@H]1CCC(C)=C[C@H]1c1c(O)cc(CCC)cc1O` sits?
Output: True

Task: is_below(Stability of Plant-Derived Cannabinoid Compounds in AB White, 21-25° C., 0.9 µg/mL) for CCCc1cc(O)c2c(c1)OC(C)(C)[C@@H]1CCC(C)=C[C@@H]21 [THCV, delta-9-tetrahydrocannabivarin] ?
Output: False

Task: For this compound, is Stability of Plant-Derived Cannabinoid Compounds in AB White, 21-25° C. lower than 0.9 µg/mL? CCCCCc1cc(O)c2c(c1)OC(C)(C)[C@@H]1CCC(C)=C[C@@H]21 [D9 THC, delta-9-tetrahydrocannabinol, reference compound]
Output: False

Task: # TODO verify Stability of Plant-Derived Cannabinoid Compounds in AB White, 21-25° C. < 0.9 µg/mL strictly for this compound: `C=C(C)[C@@H]1CCC(C)=C[C@H]1c1c(O)cc(CCCCC)c(C(=O)O)c1O`
Output: False

Task: Criterion: Stability of Plant-Derived Cannabinoid Compounds in AB White, 21-25° C. strictly below 0.9 µg/mL. Is it met by CCCCCc1cc2c(c(O)c1C(=O)O)[C@@H]1C=C(C)CC[C@H]1C(C)(C)O2 [D9 THCA, delta-9-tetrahydrocannabinolic acid] ?
Output: False

Task: Consider the compound CCCCCc1cc(O)c2c(c1)OC1(C)CCC3C1C2C3(C)C (stereo not drawn) . Is its Stability of Plant-Derived Cannabinoid Compounds in AB White, 21-25° C. strictly less than 0.9 µg/mL?
Output: True

Task: Just wondering, is Stability of Plant-Derived Cannabinoid Compounds in AB White, 21-25° C. of `CCCCCc1cc(O)c2c(c1)OC(C)(C)c1ccc(C)cc1-2` below 0.9 µg/mL?
Output: False

Could you now look at the following compound, please?
Task: Does CCCCCc1cc(O)c2c(c1)OC(C)(CCC=C(C)C)C=C2 (stereo not drawn) have Stability of Plant-Derived Cannabinoid Compounds in AB White, 21-25° C. strictly under 0.9 µg/mL?
Output: True

====

# ASSAY: Stability of cannabinoid compounds and Vitamin E components in Beverage 2 (AB Red) by LCMSMS
# Assay type: physicochemical
# CONDITION PARAMETERS: stored at 8° C., 10 days
Class field: derived from Stability of Plant-Derived Cannabinoid Compounds in AB Red; ranges lower segment = under 0.5 µg/mL, middle segment = from 0.5 µg/mL up to 3 µg/mL, upper segment = 3 µg/mL and over

Task: Could you place CCCc1cc(O)c2c(c1)OC(C)(C)[C@@H]1CCC(C)=C[C@@H]21 [THCV, delta-9-tetrahydrocannabivarin] in its proper category? Many thanks.
Output: upper segment

Task: Class for `C=C(C)[C@@H]1CCC(C)=C[C@H]1c1c(O)cc(CCC)cc1O` ?
Output: lower segment

Task: Exercise: read the entry CCCCCc1cc2c(c(O)c1C(=O)O)[C@@H]1C=C(C)CC[C@H]1C(C)(C)O2 [D9 THCA, delta-9-tetrahydrocannabinolic acid] and state which class it falls under.
Output: middle segment

Next:
Task: Band assignment needed for `CCCCCc1cc(O)c(C/C=C(\C)CCC=C(C)C)c(O)c1` please.
Output: upper segment

Task: Looking at `CCCCCc1cc(O)c2c(c1)OC(C)(C)c1ccc(C)cc1-2` , which class would you pick?
Output: middle segment

Task: Bin? CCCCCc1cc(O)c2c(c1)OC(C)(CCC=C(C)C)C=C2 (stereo not drawn)
Output: lower segment

Task: Which class does CCCCCc1cc(O)c2c(c1)OC(C)(C)[C@@H]1CCC(C)=C[C@@H]21 [D9 THC, delta-9-tetrahydrocannabinol, reference compound] fall in?
Output: upper segment

Task: Kindly state the category for this compound: `C=C(C)[C@@H]1CCC(C)=C[C@H]1c1c(O)cc(CCCCC)c(C(=O)O)c1O`
Output: middle segment
